A collection of compounds and their measured melting point
measure.name: melting point (°C)

- compound: "CC12CCC3C(C1CCC2=O)C1(CC2CC(=O)CCC23C)OCCO1 (stereo unspecified)"
  measure.name: "melting point"
  units.of.measure: "°C"
  experimental.result: 207
- compound: "Cn1ccnc1I"
  measure.name: "melting point"
  units.of.measure: "°C"
  experimental.result: 81
- compound: "COc1ccc(C(=O)OC(=O)c2ccc(OC)cc2)cc1 [4-methoxybenzoic anhydride]"
  measure.name: "melting point"
  units.of.measure: "°C"
  experimental.result: 97
- compound: "O=C(Cl)c1cncc(Br)c1 [5-bromonicotinoyl chloride]"
  measure.name: "melting point"
  units.of.measure: "°C"
  experimental.result: 73
- compound: "CN1CCN(CCCN2c3ccccc3Sc3ccc(Cl)cc32)CC1"
  measure.name: "melting point"
  units.of.measure: "°C"
  experimental.result: 228
- compound: "CC(=O)Oc1ccccc1C(=O)O"
  measure.name: "melting point"
  units.of.measure: "°C"
  experimental.result: 142
- compound: "Cc1c(C)n(C#N)c2ccccc12"
  measure.name: "melting point"
  units.of.measure: "°C"
  experimental.result: 97
- compound: "C=CCCCCCCCCCCCCCCCCCC"
  measure.name: "melting point"
  units.of.measure: "°C"
  experimental.result: 29
- compound: "O=C1Cc2ccccc2CO1 [1,4-Dihydro-3H-isochromen-3-on]"
  measure.name: "melting point"
  units.of.measure: "°C"
  experimental.result: 83
- compound: "N#Cc1cc(Cl)ccc1Cl"
  measure.name: "melting point"
  units.of.measure: "°C"
  experimental.result: 130
- compound: "Cc1cc(Cl)ccc1O"
  measure.name: "melting point"
  units.of.measure: "°C"
  experimental.result: 47
- compound: "CNN [Methylhydrazine]"
  measure.name: "melting point"
  units.of.measure: "°C"
  experimental.result: -80
- compound: "Oc1ccc(Cl)cc1 [4-Chlorophenol]"
  measure.name: "melting point"
  units.of.measure: "°C"
  experimental.result: 44
- compound: "CCCCC#N [butyl_cyanide]"
  measure.name: "melting point"
  units.of.measure: "°C"
  experimental.result: -96
- compound: "COc1ccccc1N"
  measure.name: "melting point"
  units.of.measure: "°C"
  experimental.result: 6
- compound: "ClCC1CO1 (stereo unspecified) [epichlorohydrin]"
  measure.name: "melting point"
  units.of.measure: "°C"
  experimental.result: -57

* * *

- molecule: "COC(=O)c1ccccc1C(N)=O [phthalic_acid,_methylester_amide]"
  melting point: "100 °C"
- molecule: "CC(CCC(=O)O)C1CCC2C3C(O)CC4CC(O)CCC4(C)C3CCC12C (stereo not drawn) [ursodiol]"
  melting point: "203 °C"
- molecule: "Cc1ccc(/C=C(\\Oc2ccccc2)c2nc3ccccc3s2)cc1"
  melting point: "163 °C"
- molecule: "COc1ccccc1NC(=O)/C=CC(=O)O [N-(2-methoxyphenyl)maleamic acid]"
  melting point: "144 °C"
- molecule: "O=C1/C(=C\\c2ccco2)SC(=S)N1CN1CCCCC1"
  melting point: "121 °C"
- molecule: "ClC1=C(Cl)[C@]2(Cl)C3C(Cl)C=CC3[C@@]1(Cl)C2(Cl)Cl (stereo partly drawn)"
  melting point: "95.5 °C"
- molecule: "O=C(O)[C@@H]1C[C@@H]2C[C@H]1[C@@H](O)C2"
  melting point: "161 °C"
- molecule: "ClC(Cl)=C(c1ccc(Cl)cc1)c1ccc(Cl)cc1 [4,4'-DDE]"
  melting point: "89 °C"
- molecule: "OC1c2ccccc2Oc2ccccc21 [xanthydrol]"
  melting point: "124 °C"
- molecule: "CC12CCC(CC1=O)C2(C)C (stereo not drawn) [1,7,7-Trimethylbicyclo[2.2.1]heptan-2-one]"
  melting point: "177 °C"
- molecule: "CN(C)C=O [Dimethylformamide]"
  melting point: "-60.4 °C"
- molecule: "C[C@]12CCC(=O)C[C@H]1CC[C@@H]1[C@@H]2CC[C@]2(C)C(=O)CC[C@@H]12 [(5beta)-Androstane-3,17-dione]"
  melting point: "147 °C"
- molecule: "Clc1cccc(Cl)c1 [1,3-dichlorobenzene]"
  melting point: "-25 °C"

* * *

Response key: t means melting point >= -10 °C; f means melting point < -10 °C.

- molecule: "OB(O)c1ccsc1"
  class.label: "t"
- molecule: "Oc1ccc(Cl)cc1 [p-chlorophenol]"
  class.label: "t"
- molecule: "CNc1ccccc1 [N-methylaniline]"
  class.label: "f"
- molecule: "CC(=O)c1ccc(Br)cc1"
  class.label: "t"
- molecule: "CCCCC#N [Valeronitrile]"
  class.label: "f"

* * *

Response key: y means melting point >= 80 °C; n means melting point < 80 °C.

- molecule: "C1CCOC1 [tetrahydrofuran]"
  class.label: "n"
- molecule: "OCCSSCCO [2-Hydroxyethyl Disulfide]"
  class.label: "n"
- molecule: "CC(C)COC(=O)C(C)C [isobutyl_isobutyrate]"
  class.label: "n"
- molecule: "NC(=O)c1ccc(O)cc1 [4-hydroxybenzamide]"
  class.label: "y"
- molecule: "O=[N+]([O-])c1cccc(CBr)c1 [3-nitrobenzyl_bromide]"
  class.label: "n"
- molecule: "O=C(O)Cc1ccc(Cl)cc1 [4-chlorophenylacetic acid]"
  class.label: "y"
- molecule: "CCC(C)Cl (centres undefined) [2-chlorobutane]"
  class.label: "n"
- molecule: "Cc1ccc(S(=O)(=O)Cl)cc1 [p-toluenesulfonyl_chloride]"
  class.label: "n"
- molecule: "CCCCOC(=O)c1ccc(N)cc1 [butyl p-aminobenzoate]"
  class.label: "n"
- molecule: "CCOC(=O)c1cc(O)c(O)c(O)c1 [ethyl 3,4,5-trihydroxybenzoate]"
  class.label: "y"
- molecule: "O=[N+]([O-])c1ccc(NS(=O)(=O)c2ccccc2)cc1 [4-nitro-1-phenylsulfonamidobenzene]"
  class.label: "y"
- molecule: "Clc1cccc2ccccc12 [1-chloronaphthalene]"
  class.label: "n"
- molecule: "C=CCOc1ccc(CC(=O)O)cc1Cl [Epinal]"
  class.label: "y"
- molecule: "CC(=O)OCC1OC(OC2C(COC(C)=O)OC(OC(C)=O)C(OC(C)=O)C2OC(C)=O)C(OC(C)=O)C(OC(C)=O)C1OC(C)=O (centres undefined)"
  class.label: "y"
- molecule: "CC(=O)OC(C)=O [acetic anhydride]"
  class.label: "n"
- molecule: "CC(=O)NNC(N)=S [1-acetyl-3-thiosemicarbazide]"
  class.label: "y"
- molecule: "O=C(O)c1ccccc1Br [o-bromobenzoic_acid]"
  class.label: "y"
- molecule: "O=C(C(=O)c1cccs1)c1cccs1 [2,2'-thenil]"
  class.label: "y"
- molecule: "O=C(O)CC1Cc2ccccc2C1 [2-indanylacetic acid]"
  class.label: "y"

* * *

Response key: Condition met means melting point >= 90 °C; Condition not met means melting point < 90 °C.

- molecule: "CCCCC1(CC)C(=O)NC(=O)NC1=O [Butethal]"
  class.label: "Condition met"
- molecule: "O=C=NC1CCCCC1 [cyclohexyl isocyanate]"
  class.label: "Condition not met"
- molecule: "NC(=O)c1cnccn1 [Pyrazinamide]"
  class.label: "Condition met"
- molecule: "Cc1nc(-c2ccc(-c3nc(C)c(-c4ccccc4)o3)cc2)oc1-c1ccccc1 [1,4-bis(4-methyl-5-phenyloxazol-2-yl)benzene]"
  class.label: "Condition met"

* * *

A collection of compounds and their measured melting point

- compound: "CC#N [Acetonitrile]"
  melting point: "-46 °C"
- compound: "O=[N+]([O-])c1cc(Cl)ccc1O"
  melting point: "89 °C"
- compound: "CCCOC1CCC2C3CCC4=CC(=O)CCC4(C)C3CCC12C (stereo not drawn)"
  melting point: "118 °C"
